method: Excitation and emission values of the fluorescent dyes in solvent
Type: physicochemical
experimental context: measured in methanol
Assignment: determine reported Emission for the given compounds.
State the answer as a number, implicitly in nm.

[in] Given the entry CCN(CC)c1ccc2nc3c4ccc(O)c(Br)c4c(=O)c(Br)c-3oc2c1 , report its measured Emission.
[out] 653

[in] What value of measured Emission is listed for CCCCOc1ccc2c3nc4c(C)cc(N(CC)CC)cc4sc-3cc(=O)c2c1 ?
[out] 664

[in] What measured Emission goes with CCN(CC)c1cc(C)c2nc3c4ccc(O)cc4c(=O)cc-3sc2c1 ?
[out] 665

[in] Param item = CCN(CC)c1ccc2nc3c4cc(O)ccc4c(=O)c(Br)c-3oc2c1 ; retrieve measured Emission.
[out] 640

[in] Please report the recorded Emission for CCN(CC)c1ccc2nc3c4cc(O)ccc4c(=O)cc-3oc2c1 .
[out] 629

[in] If you can, please state the reported Emission value of CCN(CC)c1ccc2nc3c4ccc(O)cc4c(=O)c(Br)c-3oc2c1 .
[out] 650

[in] Need Emission of CCN(CC)c1ccc2nc3c4cc(OCCCC(=O)O)ccc4c(=O)cc-3oc2c1 , thanks.
[out] 631

[in] Recorded Emission for CCN(CC)c1ccc2nc3c4cc(O)ccc4c(=O)c(Cl)c-3oc2c1 , please?
[out] 643

[in] Which measured Emission value corresponds to CCCCOc1ccc2c3nc4ccc(N(CC)CC)cc4oc-3c(Br)c(=O)c2c1 ?
[out] 650

###

Could you please report measured Excitation for the items listed next?
method: Excitation and emission values of the fluorescent dyes in solvent
Assay type: physicochemical
experimental context: measured in methanol
Answer format: numeric, nm implied, no suffix.

[in] Suppose we examine the compound CCCCOc1ccc2c3nc4c(C)cc(N(CC)CC)cc4sc-3cc(=O)c2c1 [compound 7] ; what Excitation value has been reported?
[out] 585

[in] Entry CCN(CC)c1ccc2nc3c4cc(OCCCC(=O)O)ccc4c(=O)cc-3oc2c1 [compound 11, nile red butyric acid] : reported Excitation = ?
[out] 544

[in] Tell me the measured Excitation of CCN(CC)c1ccc2nc3c4cc(O)ccc4c(=O)cc-3oc2c1 [compound 1] , please.
[out] 540

[in] Value lookup for Excitation; key = CCN(CC)c1ccc2nc3c4ccc(O)c(Br)c4c(=O)c(Br)c-3oc2c1 [compound 5]
[out] 562

[in] // lookup Excitation for CCN(CC)c1ccc2nc3c4cc(O)ccc4c(=O)c(Br)c-3oc2c1 [compound 2]
[out] 550

[in] Need Excitation of CCN(CC)c1ccc2nc3c4cc(O)ccc4c(=O)c(Cl)c-3oc2c1 [compound 3] , thanks.
[out] 549

[in] Sample CCN(CC)c1ccc2nc3c4ccc(O)cc4c(=O)c(Br)c-3oc2c1 [compound 4] — what was its Excitation?
[out] 552

[in] Returns the measured Excitation for the input compound. Input: CCN(CC)c1cc(C)c2nc3c4ccc(O)cc4c(=O)cc-3sc2c1 [compound 6]
[out] 580

[in] Field request: Excitation | item: CCCCOc1ccc2c3nc4ccc(N(CC)CC)cc4oc-3c(Br)c(=O)c2c1 [compound 8]
[out] 556

Provenance of the data: patent US20080038840A1
